tested on: 786-0 renal; test: NCI tumour cell line growth inhibition, 48 h
Documented TGI across a set of compounds

compound	relation-sign	TGI [µM]
CCN(CC)c1c(C(C)(C)C)c(=O)n2ccsc2c1OC(C)=O	=	34.1
O=C1Cc2cc3ccccc3nc2-c2ccccc2N1	>	100
O=c1ccc(N=Nc2ccccc2)ccc1O	=	58
CC(=O)OC1CCn2c1nc1cc([N+](=O)[O-])c(C)cc12 (stereo unspecified)	>	100
Cc1nc2ccc(NCCN(C)C)c3c(=O)c4ccccc4n1c23	=	15.7
CN(C)C(=O)C(F)(F)C(c1ccccc1)C1C(=O)N(C)C(=O)N(C)C1=O (stereo unspecified)	>	100
Clc1ccc2c(NCCNc3nc(N4CCOCC4)nc4ccccc34)ccnc2c1	=	4.95
OCCCN=C1CCCCC1	>	100
CN1C2C=CC(=O)C1C1C(=O)N(c3ccccc3)C(=O)C12 (stereo unspecified)	=	15.4
CCCOC(=O)c1cc(O)c(O)c(O)c1	>	100
CNC(=O)CCN1CCN(CC/C=C2\c3ccccc3Sc3ccc(Cl)cc32)CC1	=	27.4
COc1ccc2nc3ccccc3c(NCCNCCO)c2c1	=	7.55
CC(C)(C)N/N=C(/Cc1nc2c3c(ccc2[nH]c1=O)C(=O)c1ccccc1C3=O)C(=O)NC1=C(Cl)C(=O)c2ccccc2C1=O	>	100
Cc1ccc(NCCNCC(C)(C)O)c2c(=O)c3ccc(Cl)cc3sc12	=	3.04
CCOC(=O)C1=C(O)CC(=O)N=C1N1CCCC1	>	100
O=c1cc(NNc2cccc3ccccc23)[nH]c(=O)[nH]1	=	18.6
CC(=O)O[C@H]1[C@@H](N2CCOCC2)C[C@H]2[C@@H]3CC=C4C[C@@H](N5CCCC5)CC[C@]4(C)[C@H]3CC[C@@]21C	>	100
CC(C)(C)OC(=O)Cn1ncn(NC(=O)Cc2ccccc2)c1=S	>	10
NC(CCC(=O)c1ccccn1)C(=O)O (stereo unspecified)	>	100
CSc1cc(Cl)c(C)cc1S(=O)(=O)NC(=O)NNc1ccc(C)cc1	>	100
CCCCCCCCCCCCCCCCCc1nc(Cl)nc(Cl)c1Cl	>	100
ClC1=NSSC1(Cl)Cl	=	59.3
OCCc1ccsc1-c1sc(-c2cc(CCO)c(-c3sc(-c4cc(CCO)c(-c5sccc5CCO)s4)cc3CCO)s2)cc1CCO	=	2.14
Cc1ccc(/C=c2\cc3oc(=O)c4cccc(c4-3)c2=O)cc1	>	100
O/N=C\c1c2c(cc3c1CCC3)CCC2	>	100
O=C(/C=C/c1ccc(O)c(O)c1)N1CCN(c2ccc(Cl)cc2)CC1	=	37
FC(F)(F)c1ccccc1C1SCc2nc3ccccc3n21 (stereo unspecified)	>	100
Nc1nc(Sc2ccc([N+](=O)[O-])c3nonc23)c2[nH]cnc2n1	=	3.18
NC(=S)NNCC(=O)CC(O)(C(F)(F)F)C(F)(F)Cl (stereo unspecified)	>	100
CC(=O)CCC1(c2ccccc2)OC(=O)C(C#N)=C1c1ccccc1 (stereo unspecified)	>	100
CC[C@H](C)[C@H](NC(=O)C12C3C4C1C1C2C3C41NC)C(=O)N(C)[C@H](C[C@@H](OC(C)=O)c1nc(C(=O)N[C@@H](Cc2ccccc2)C[C@H](C)C(=O)OC)cs1)C(C)C (stereo partly specified)	>	14.3

###

tested on: HOP-18 NSCLC; experiment: NCI tumour cell line growth inhibition, 48 h
Documented TGI across a set of compounds
readout-name: TGI

                                   compound  measured_target  readout_name  recorded_value
0  Nc1nc(SCc2ccccc2Cl)c2ncn(C3OC(CO)C(O)C3O)c2n1 (stereo not drawn)     HOP-18 NSCLC           TGI        > 100 µM
1  COC(=O)CC1(O)C(=O)OCc2c1cc1n(c2=O)Cc2c-1nc1ccccc1c2OC (stereo not drawn)     HOP-18 NSCLC           TGI        > 100 µM
2  N#C[S-].[La+3].c1ccc(-c2ccccn2)nc1.c1ccc(-c2ccccn2)nc1.c1ccc(-c2ccccn2)nc1     HOP-18 NSCLC           TGI        > 100 µM

###

system: SF-295 CNS; experiment: NCI tumour cell line growth inhibition, 48 h; in the data active = GI50 below about 0.43 µM; inactive = the rest
Outcome codes: TRUE for active, FALSE for inactive

>>> print(df.to_string())
                                    compound  assigned_label
 0  CCCS(=O)(=O)Nc1ccc(F)c(C(=O)c2c[nH]c3ncc(-c4ccc(OCCCC5CCCCN5)nc4)cc23)c1F (stereo not given)           FALSE
 1  Nc1ncn([C@H]2CC(O)[C@@H](CO)S2)c(=O)n1 (stereo not given in full)           FALSE
 2  CCc1ccc2c(c1)C(=O)c1c-2n(CCCN)c(=O)c2cc(OC)c(OC)cc12           FALSE
 3  CN1C2C=CC(=O)C1C1C(=O)N(c3ccccc3)C(=O)C12 (stereo not given)           FALSE
 4  Nc1ccc(CC[C@H]2CCC/C=C/[C@@H]3C[C@H](O)C[C@H]3[C@H](O)/C=C/C(=O)O2)cc1            TRUE
 5  Cn1cc(-c2cc(-c3cn(C)c4ccccc34)[nH]n2)c2ccccc21           FALSE
 6  O=C1C(Cl)=C(Nc2ccc(S(=O)(=O)c3ccc(NC4=C(Cl)C(=O)c5ccccc5C4=O)cc3)cc2)C(=O)c2ccccc21           FALSE
 7  CCN(CC)c1ccc(/C=N/NC(=O)Cc2ccc(Nc3ccnc(C(F)(F)F)c3)cc2)c(O)c1           FALSE
 8  Cc1cc(N2CCC(N3CCCC3)CC2)nc(/N=C(\N)Nc2ccc(Cl)c(Cl)c2)n1           FALSE
 9  COc1cc2c(c(OC)c1OC)-c1cc(I)c(O)cc1[C@@H](NC(C)=O)CC2            TRUE
10  CC(C)=C[C@@H]1C[C@H](C)[C@H]2CC[C@H](C)c3c(O)c(OC4OC(C)C(O)C(O)C4O)c(C)c1c32 (stereo not given in full)           FALSE
11  CCCC(=O)Nc1cc(C(=O)N2C[C@H]3C[C@@]34C2=CC(=O)c2[nH]cc(C)c24)n(COC)c1            TRUE
12  N[C@@H]1CCCN(c2c(Br)cnc3[nH]cc(NC(=O)C4CC4)c23)C1            TRUE
13  CCSC[C@@H]1C[C@](O)(c2ccccc2)[C@@H](c2ccccc2)O1           FALSE
14  CC(=O)c1cc2c(N)c(C(=O)Nc3cccc4ccccc34)sc2nc1C           FALSE

###

test system: SF-295 CNS; assay: NCI tumour cell line growth inhibition, 48 h
readout-name: TGI (µM)

                                   molecule  relation_sign  recorded_value
0           CC(=O)c1csc2c1C(=O)c1ccccc1C2=O              =               3
1  Nc1ncn([C@H]2CC(O)[C@@H](CO)S2)c(=O)n1 (stereo partly drawn)              >             100
2                 O=c1ccc(N=Nc2ccccc2)ccc1O              =            20.9

###

Documented GI50 across a set of compounds
system: NCI/ADR-RES ovarian; assay: NCI tumour cell line growth inhibition, 48 h
readout-name: GI50

>>> df
                                   compound  recorded_value
0  Nc1ncn([C@H]2CC(O)[C@@H](CO)S2)c(=O)n1 (stereo partly specified)          559 nM
1  CCCC(=O)Nc1cc(C(=O)N2C[C@H]3C[C@@]34C2=CC(=O)c2[nH]cc(C)c24)n(COC)c1         1170 nM
2    CN(C)CCCN1c2ccccc2Sc2ccc(C(F)(F)F)cc21         1660 nM
3  CCCCCCCCCCCC1N=C(N)N=C(N)N1c1cccc(Br)c1 (stereo unspecified)        14600 nM
4  Clc1ccc2c(NCCNc3nc(N4CCOCC4)nc4ccccc34)ccnc2c1         3730 nM
5                         O=c1c(I)c[nH]cc1I     > 100000 nM

###

test system: MDA-MB-435; test: NCI tumour cell line growth inhibition, 48 h
readout-name: TGI

In [3]: df
Out[3]:
                                   molecule  recorded_value
0  CN(C)C(=O)C(F)(F)C(c1ccccc1)C1C(=O)N(C)C(=O)N(C)C1=O (stereo unspecified)        > 100 µM
1  S=c1ncc(-c2cncc(-c3cnc(=S)[nH]c3)n2)c[nH]1        > 100 µM
2  C=CCOCC1C2CCC3(OCCO3)C21 (stereo unspecified)        > 100 µM
3  COC(=O)c1ccccc1CC1Cc2c(C)ccc(C)c2C1=O (stereo unspecified)         59.7 µM
4  Cc1cc(N2CCC(N3CCCC3)CC2)nc(/N=C(\N)Nc2ccc(Cl)c(Cl)c2)n1          3.3 µM
5  C=CCC(N[C@@H](CO)c1ccccc1)c1ccc2ccccc2n1 (stereo partly specified)        > 100 µM
